# assay procedure: Plasma pharmacokinetics after single oral sustained release dose
# Type: in vivo, human
# stated conditions: human, plasma, po, 25 mg, plasma, single 25 mg SR oral dose, N=12; read-out: AUCall, Geometric Mean

structure smiles string	units of measure	AUC
N#CCC1(n2cc(-c3ncnc4[nH]ccc34)cn2)CN(C2CCN(C(=O)c3ccnc(C(F)(F)F)c3F)CC2)C1	µM·h	0.105

This collection of values is drawn from patent US11596632B2.
